# Target Desc: Ubiquitin carboxyl-terminal hydrolase 28 (Homo sapiens) (UniProt Q96RU2)
# Sequence (Q96RU2 whole entry, looked up): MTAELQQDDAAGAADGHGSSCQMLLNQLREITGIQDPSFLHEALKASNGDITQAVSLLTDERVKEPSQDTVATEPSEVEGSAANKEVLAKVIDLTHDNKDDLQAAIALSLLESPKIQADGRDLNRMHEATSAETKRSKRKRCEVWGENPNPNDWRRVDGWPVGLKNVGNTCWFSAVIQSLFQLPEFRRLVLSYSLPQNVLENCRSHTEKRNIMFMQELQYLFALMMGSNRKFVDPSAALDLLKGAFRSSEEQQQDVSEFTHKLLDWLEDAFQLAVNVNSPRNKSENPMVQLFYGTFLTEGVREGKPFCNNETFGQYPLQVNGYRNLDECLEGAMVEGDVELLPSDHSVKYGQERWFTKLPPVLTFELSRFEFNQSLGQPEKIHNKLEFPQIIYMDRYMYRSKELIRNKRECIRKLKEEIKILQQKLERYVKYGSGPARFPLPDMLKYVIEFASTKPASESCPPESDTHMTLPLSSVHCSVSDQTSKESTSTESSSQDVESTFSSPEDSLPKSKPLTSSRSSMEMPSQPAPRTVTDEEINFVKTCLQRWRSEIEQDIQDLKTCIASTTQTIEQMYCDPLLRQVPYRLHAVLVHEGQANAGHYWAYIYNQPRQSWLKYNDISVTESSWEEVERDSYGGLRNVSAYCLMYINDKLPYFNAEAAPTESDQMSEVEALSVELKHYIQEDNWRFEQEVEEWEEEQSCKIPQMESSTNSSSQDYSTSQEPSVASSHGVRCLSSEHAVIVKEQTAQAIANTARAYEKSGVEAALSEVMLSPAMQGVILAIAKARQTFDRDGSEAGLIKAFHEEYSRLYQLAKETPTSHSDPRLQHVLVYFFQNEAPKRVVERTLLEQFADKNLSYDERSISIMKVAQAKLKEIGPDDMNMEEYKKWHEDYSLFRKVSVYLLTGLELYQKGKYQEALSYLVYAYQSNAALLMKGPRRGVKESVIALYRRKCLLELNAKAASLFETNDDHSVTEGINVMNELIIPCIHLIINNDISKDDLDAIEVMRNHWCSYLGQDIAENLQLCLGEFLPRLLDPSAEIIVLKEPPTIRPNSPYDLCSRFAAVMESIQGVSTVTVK
# Test Description: Concentration-response biochemical assay confirming initial hits as inhibitors of ubiquitin-specific protease 28 (AID 1645866)
# Experimental Context: purified USP28, ubiquitin-rhodamine fluorescence, 30 min
Calls of active or inactive are those of the source.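 Rule for the calls: active = in confirmatory dose-response testing, peak deubiquitinase inhibition of 30% or more; inactive = the rest.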
The categories you may choose from are yes (1) (active), no (0) (inactive)

Fill in: this test's call for `O=C(Cn1c(=O)n(Cc2ccco2)c(=O)c2ccc(C(=O)NC3CCCC3)cc21)NCc1ccco1` is ___
yes (1)

Test call, this compound: `CN(C)c1cc(-n2cnc(C(=O)NCc3ccccc3Cl)c2)ncn1`
yes (1)

Hi, do you know how `Cc1cc(C)cc(N(CCC(=O)Nc2ccc(N3CCOCC3)cc2)S(=O)(=O)c2ccc(Cl)cc2)c1` came out in this test?
yes (1)

How did this test come out for `O=C(COC(=O)CCc1ccc(S(=O)(=O)N2CCOCC2)cc1)Nc1ccc2c(c1)OCCO2` ?
yes (1)

Test call for this compound, please: Cn1c(=O)c2c(ncn2CC(=O)NC2CCCc3ccccc32)n(C)c1=O (stereo not given)
no (0)

----------
# Target Desc: Ubiquitin carboxyl-terminal hydrolase 28 (Homo sapiens)
# Test Description: Concentration-response biochemical assay confirming initial hits as inhibitors of ubiquitin-specific protease 28 (AID 1645866)
# Experimental Context: purified USP28, ubiquitin-rhodamine fluorescence, 30 min
Active and inactive are the calls of the source.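 The calls were made as follows: active = in confirmatory dose-response testing, peak deubiquitinase inhibition of 30% or more; inactive = the rest.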
Form entry, call: pick from active, inactive

What outcome does the record of this test show for `O=C(CSc1nncc2ccccc12)Nc1ccc2c(c1)OCO2` ?
active

Hey, what did the test say about `COc1cc2c(cc1OC)-c1cc(Nc3ccc(Br)cc3)nc(=O)n1CC2` ?
active

Please state the recorded outcome for this molecule: `Cc1ccc(OCCn2c(=N)n(C(C)C)c3ccccc32)cc1`
active

Just curious, what result did `CC(C)Cn1cc(OC(=O)c2ccc(F)cc2)c2c1nc(-c1ccc(F)cc1)n1c3ccccc3nc21` get here?
inactive

Record lookup: outcome of this test for `COc1ccccc1S(=O)(=O)N1CC[C@@H]2CN(C)[C@@H]2C1` ?
active

For O=C(NCC1CC1)C1CCCN(c2ccc(-c3ccccc3)nn2)C1 (stereo unspecified) , what call appears in the results of this test?
inactive

Hey, what did the test say about `CN(C)CCc1cc2c(c3c1ccc1ccccc13)OCO2` ?
active

Fill in: this test's call for `COc1ccc(CNC(=O)c2[nH]nc3c2CCc2ccccc2-3)cc1` is ___
active

Write down the call the test reported for this molecule. Item: `O=C(Cc1cc(-c2ccccc2)on1)NCc1c(F)cccc1F`
active

Test call, this molecule: `O=c1c(-c2nc(C3CC3)no2)cccn1Cc1c(F)cccc1Cl`
active

Hi, do you know how `CCN1C(=O)c2cccnc2Sc2cc(NC(=O)c3ccc(Cl)s3)ccc21` came out in this test?
active

----------
# Target Desc: Ubiquitin carboxyl-terminal hydrolase 28 (Homo sapiens) (UniProt Q96RU2)
# Test Description: Concentration-response biochemical assay confirming initial hits as inhibitors of ubiquitin-specific protease 28 (AID 1645866)
# Experimental Context: purified USP28, ubiquitin-rhodamine fluorescence, 30 min
Active and inactive are the calls of the source.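 How the source made its calls: active means in confirmatory dose-response testing, peak deubiquitinase inhibition of 30% or more; inactive means the rest.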
Pick one and only one: True (active), False (inactive)

Which outcome did this test record for the compound `COc1ccc(N(CC(=O)Nc2cccc(F)c2)S(=O)(=O)c2ccc(OC)c(OC)c2)cc1` ?
True

# lookup: test call for `COc1ccc(C(=O)Nc2ccc3c(c2)C(=O)N(C)c2ccccc2O3)cc1`
True

GET /call?item= COc1cc(C(=O)NC(Cc2ccccc2)c2nc3ccccc3[nH]2)cc(OC)c1OC (stereo unspecified) returns the recorded outcome of this test.
True

Just curious, what result did `O=C(Nc1ccc(F)cc1F)NC1Cc2ccccc2C1` get here?
True

Short answer needed: outcome of this test for `Cc1noc(C)c1COc1cccc(C(=O)Nc2cc(Cl)ccc2-n2cncn2)c1` ?
False

I'd appreciate the recorded outcome for `O=C(Cc1nnc2c(-c3nc(C4CC4)no3)cccn12)Nc1ccccc1` from this test.
True

Record request — test call for `O=C(COc1ccccc1-c1nnc(-c2ccccc2)o1)Nc1ccc(F)cc1F`
True

Hi, do you know how `O=C(Cn1nc2ccc(C(=O)NCc3ccccc3)cn2c1=O)Nc1ccc2c(c1)OCO2` came out in this test?
True

State the result this test recorded for `Cc1c(-c2nc(-c3ccccc3Cl)no2)nnn1-c1cccc(F)c1` .
True

Hello, I am checking results. What call was entered for `Cn1c(CN2CCCCCC2)nc2cc(NC(=O)c3ccccc3)ccc21` ?
False

Which outcome was entered for the compound COc1ccc(CNC(=O)C(C)n2nc(-c3ccco3)c(-c3cc(C)no3)cc2=O)cc1 (stereo unspecified) in this test?
True

Hi team, can someone confirm the assay call for `O=C(Cn1c(=O)n(Cc2ccc(F)cc2)c(=O)c2ncccc21)Nc1ccccc1` ?
True

Answer briefly: the call reported for `COc1ccc(-c2nonc2NC(=O)C(c2ccccc2)c2ccccc2)cc1OC` in this assay.
False

Recorded test call requested for `COc1ccc(CCn2cnc3c([nH]c4ccccc43)c2=O)cc1`
True

Status in this test for Cc1c(C)n(-c2ccccc2)c2ncn(CC(=O)NC(C)c3ccccc3)c(=O)c12 (stereo unspecified) ?
True

Lab log entry: `CC1=C(c2ccc(C)c(C)c2)S(=O)(=O)NC1=NCC(=O)NCCCc1ccccc1` — outcome as called in the assay?
True

Which result was noted for this compound in the test: CCC(C)c1ccc(O[C@@H]2O[C@@H]3COC(c4ccccc4)O[C@H]3[C@H](O)[C@H]2NC(C)=O)cc1 (stereo partly specified)
True

Called result for `COc1ccccc1CC(=O)Nc1nc2ccccc2[nH]1`
True

Name the outcome recorded for `O=C(/C=C/c1ccc(F)cc1)Nc1ccc2c(c1)OCCO2` in the assay.
True

Which result was noted for this compound in the test: `Cc1nn(C)c2c1[C@@H](c1ccc(F)c(Br)c1)[C@H](NC(=O)c1ccccc1)C(=O)N2`
True

Look up the recorded call for `O=C(Cn1c(=O)n(-c2ccccc2)c(=O)c2ccc(C(=O)NCc3ccc4c(c3)OCO4)cc21)NCCC1=CCCCC1` in this test.
True

----------
# Target Desc: Ubiquitin carboxyl-terminal hydrolase 28 (Homo sapiens) (UniProt Q96RU2)
# Test Description: Concentration-response biochemical assay confirming initial hits as inhibitors of ubiquitin-specific protease 28 (AID 1645866)
# Experimental Context: purified USP28, ubiquitin-rhodamine fluorescence, 30 min
Active and inactive are the calls of the source.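 How the source made its calls: active means in confirmatory dose-response testing, peak deubiquitinase inhibition of 30% or more; inactive means the rest.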
Select the correct class. Options are True (active), False (inactive) and nothing else.

// param item: `CCOC(=O)c1ccc(NC(=O)c2cnc(N3CCOCC3)nc2)cc1` ; yields the recorded call
False

Returns: the outcome recorded for `CCOc1ccc2c(c1)c(=O)c(C(=O)c1ccc(C)cc1)cn2CC(=O)Nc1ccc(OC)c(OC)c1` in this assay.
True

Please let me know the test result on file for `Cc1cccc(C(=O)Nc2ccc3c(c2)nc(CSc2nccc(C)n2)n3C)c1` .
True

Record request — test call for CC(c1ccccc1)n1c(-c2ccc(F)cc2)nc2c(c(=O)c3ccccc3n2C)c1=O (stereo not given)
True

What was the test verdict on `O=C1COc2ccccc2N1Cc1noc(-c2ccccc2)n1` ?
True

----------
# Target Desc: Ubiquitin carboxyl-terminal hydrolase 28 (Homo sapiens) (UniProt Q96RU2)
# Test Description: Concentration-response biochemical assay confirming initial hits as inhibitors of ubiquitin-specific protease 28 (AID 1645866)
# Experimental Context: purified USP28, ubiquitin-rhodamine fluorescence, 30 min
Activity calls are given as the source filed them.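 Rule for the calls: active = in confirmatory dose-response testing, peak deubiquitinase inhibition of 30% or more; inactive = the rest.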
Pick from true for active, false for inactive when you respond.

Name the outcome recorded for `COc1cccc(-c2cc(=O)[nH]c(Nc3nc(C)c4ccccc4n3)n2)c1` in the assay.
true

Recorded test outcome, item `O=C(CCCC(=O)c1ccccc1)Nc1ccc(F)cc1`
true

Please state the recorded outcome for this compound: `O=C(Nc1ccc2c(c1)N(C(=O)C1CCCC1)CC2)c1c(F)cccc1F`
true

GET /call?item= `COc1ccccc1CNC(=O)c1ccccc1OCc1ccccc1Cl` returns the recorded outcome of this test.
false

# fetch the recorded call for `Nc1ccc(NC(=O)c2cc3c(s2)CCC3)cc1[N+](=O)[O-]` here
true

GET /call?item= `O=C(/C=C/c1ccc(F)cc1)N1CCC(Cc2ccccc2)CC1` returns the recorded outcome of this test.
true

Can you look up the reported call for CC(C)c1ccc(C(C(=O)NC2CCCCC2)N(C(=O)c2cnccn2)c2cccc(F)c2)cc1 (stereo not given) for me?
true

So what was the verdict on `CCOC(=O)N1CCN(S(=O)(=O)c2ccc(C(=O)Nc3ccc(Br)cc3)cc2)CC1` in this test?
true

Returns: the outcome recorded for `Cc1nc(SCC(=O)Nc2cc(Cl)ccc2C)c2oc3ccccc3c2n1` in this assay.
true

Can you look up the reported call for `O=C(CN1C(=O)c2ccccc2Sc2ccc(C(=O)N3CCCC3)cc21)Nc1ccccc1Cl` for me?
true

----------
# Target Desc: Ubiquitin carboxyl-terminal hydrolase 28 (Homo sapiens) (UniProt Q96RU2)
# Test Description: Concentration-response biochemical assay confirming initial hits as inhibitors of ubiquitin-specific protease 28 (AID 1645866)
# Experimental Context: purified USP28, ubiquitin-rhodamine fluorescence, 30 min
The source made the active and inactive calls.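 How the source made its calls: active means in confirmatory dose-response testing, peak deubiquitinase inhibition of 30% or more; inactive means the rest.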
Please answer using one outcome listed in active, inactive

Hi, sorry to bother you, what did the test record for `Cc1ccc2cc(CNc3ccccc3)c(=O)n(CC(=O)Nc3ccccc3C)c2c1` ?
active

Short answer needed: outcome of this test for `O=c1c(S(=O)(=O)c2cc(F)cc(F)c2)c[nH]c2cc(Cl)ccc12` ?
active

Would you mind telling me which call this test gave Cc1nn(-c2nc3ccccc3[nH]2)c2c1C(c1cccs1)CC(=O)N2 (stereo not given) ?
inactive

// outcome(item) with item = `CC(=O)c1cc2c(=O)c3c(C(=O)O)c(O)c(O)cc3oc2c(C(C)=O)c1-c1coc2cc(O)c(O)c(C(=O)O)c2c1=O`
active

Hey, what did the test say about `COc1ccc(CNC(=O)CCc2nnc3n(Cc4ccccc4Cl)c(=O)c4ccccc4n23)cc1` ?
active

The origin of these recorded values is PubChem BioAssay AID1645866.
